Entries annotated with measured MIC-ls E. coli (ATCC 25922)
- Tested on: E. coli (ATCC 25922)
- Assay type: cell-based, Escherichia coli
- conditionDescription: ATCC 25922, 24 h
Bridge positions count the residues as written; N and C are the ends. Square brackets hold non-standard residues; d marks the D form. Ends that are not written are not given here. Abu = CC[C@H](N)C(=O)O
Unit µg/mL implied. Number only.

Examples with their reported MIC-ls E. coli (ATCC 25922) follow.
GPDS[Abu]NHDRGL[Abu]RVGN[Abu]NPGEYLAKY[Abu]FEPVIL[Abu][Abu]KPLSPTPTKT [AvBD-12A6] : 64
GPHSANHVRGLARVGNANPGLYLAKYAFIPVILAAKPLSPTPTKT [AvBD-12A1] : 8

Summary: GPDS[Abu]NHDRGL[Abu]RVGNCNPGEYLAKY[Abu]FEPVIL[Abu]CKPLSPTPTKT (disulfide 17-35) [AvBD-12A5] , E. coli (ATCC 25922), MIC-ls E. coli (ATCC 25922) = 64

E. coli (ATCC 25922) MIC-ls E. coli (ATCC 25922) of GPRSANHKRGLARVGNANPGKYLAKYSFRPVILSSKPLSPTPTKT [AvBD-12A3] is 4

Entry GPDS[Abu]NHDRGLCRVGNCNPGEYLAKYCFEPVIL[Abu]CKPLSPTPTKT (disulfide 12-27, 17-35) [AvBD-12A4] , E. coli (ATCC 25922) data, MIC-ls E. coli (ATCC 25922) value: 128

Value sought: MIC-ls E. coli (ATCC 25922), system E. coli (ATCC 25922), item GPRSSNHKRGLSRVGNSNPGKYLAKYAFRPVILAAKPLSPTPTKT [AvBD-12A2] . Result: 4

Hello, the source for this data is paper PMC5324278, in case you need it.
